- Measurement target: protein-protein interaction between Kras and SOS1 (biotin-tagged human Kras loaded with GDP, His-tagged human SOS1) (Homo sapiens (Human), UniProt P01116, G12D)
- Experiment: Protein-protein interaction inhibition between Kras and SOS1 (KrasG12D-SOS PPI) using AlphaScreen;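 also: kras produced in E. coli, Ni-coupled donor beads and streptavidin acceptor beads, excitation 680 nm with emission detected at 520–620 nm via singlet oxygen transfer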
- Format: biochemical
- Condition details: AlphaScreen; biotin-tagged human Kras loaded with GDP, His-tagged human SOS1; read-out: KRAS G12D-SOS PPI IC50
Numbered stars: 1 amine (or outer) side, 2 acyl side, 3 side chain; on linkers, the order of the positions; unused ones are H or OH. Bridge positions count the residues as written; N and C are the ends. Square brackets hold non-standard residues; d marks the D form. Peptide text beside a SMILES is read from it. * marks the point of attachment. hPhe(3,5-F2-4-CF3) = N[C@@H](CCc1cc(F)c(C(F)(F)F)c(F)c1)C(=O)O; hPhe(3-Cl-4-CF3) = N[C@@H](CCc1ccc(C(F)(F)F)c(Cl)c1)C(=O)O; X46 = CN([C@@H](CCC1CN(C(=O)OC(C)(C)C)C1)C(=O)[*:2])[*:1]; hPhe(3-F,4-CF3) = N[C@@H](CCc1ccc(C(F)(F)F)c(F)c1)C(=O)O; Pro(cis-4-Ph) = O=C(O)[C@@H]1C[C@H](c2ccccc2)CN1; NMePhe(4-Cl) = CN[C@@H](Cc1ccc(Cl)cc1)C(=O)O; NMePhe(4-Me) = CN[C@@H](Cc1ccc(C)cc1)C(=O)O; NMedβ3hAla = C[C@H](CC(=O)[*:2])N(C)[*:1]; NMeGly(cPent) = CN[C@H](C(=O)O)C1CCCC1; NMeCha = CN[C@@H](CC1CCCCC1)C(=O)O; X4 = C#CC[C@H](CC(=O)[*:2])N[*:1]; NMeChg = CN[C@H](C(=O)O)C1CCCCC1; NMeI = CC[C@H](C)[C@H](NC)C(=O)O; NMeD = CN[C@@H](CC(=O)O)C(=O)O; NMeL = CN[C@@H](CC(C)C)C(=O)O; NMeV = CN[C@H](C(=O)O)C(C)C; d(β3hA) = C[C@@H](N)CC(=O)O; Azetidin(1-yl) = C1CN(*)C1; NMeS = CN[C@@H](CO)C(=O)O; Morpholide = C1CN(*)CCO1; NMeA = CN[C@@H](C)C(=O)O; NMeAib = CNC(C)(C)C(=O)O; Piperidide = C1CCN(*)CC1; Thz = O=C(O)[C@@H]1CSCN1; dNMeA = CN[C@H](C)C(=O)O; Ac5c = NC1(C(=O)O)CCCC1; Aze = O=C(O)[C@@H]1CCN1; Sar = CNCC(=O)O
Answer each item with its documented IC50.

INPUT: Look at this molecule and give its reported IC50. CC[C@H](C)[C@@H]1NC(=O)[C@H](CC(C)C)N(C)C(=O)C[C@@H](C(=O)N2CCOCC2)N(C)C(=O)[C@H](C2CCCC2)N(C)C(=O)C2(CCCC2)NC(=O)[C@@H]2CCCN2C(=O)[C@H](CCc2ccc(C(F)(F)F)c(Cl)c2)NC(=O)CN(C)C(=O)[C@H](CC2CCCCC2)N(C)C(=O)[C@@H]2CCN2C(=O)[C@H](C)NC1=O [Compound 1137] ([NMeL]IA[Aze][NMeCha][Sar][hPhe(3-Cl-4-CF3)]P[Ac5c][NMeGly(cPent)][NMeD]-Morpholide; lactam N-11)
OUTPUT: 4.6 nM

INPUT: Moving on to CC[C@H](C)[C@@H]1NC(=O)[C@H](CC(C)C)N(C)C(=O)C[C@@H](C)NC(=O)[C@H](C2CCCC2)N(C)C(=O)C2(CCCC2)NC(=O)[C@@H]2CCCN2C(=O)[C@H](CCc2ccc(C(F)(F)F)c(Cl)c2)NC(=O)[C@@H](C)N(C)C(=O)[C@H](Cc2ccc(C)cc2)N(C)C(=O)[C@@H]2CCN2C(=O)CN(C)C1=O [Compound 1517] (cyclo([Ac5c][NMeGly(cPent)][d(β3hA)][NMeL]I[Sar][Aze][NMePhe(4-Me)][dNMeA][hPhe(3-Cl-4-CF3)]P))
OUTPUT: 49 nM

INPUT: Moving on to CC[C@H](C)[C@@H]1NC(=O)[C@H](CC(C)C)N(C)C(=O)C[C@@H](C(=O)N2CCCCC2)N(C)C(=O)[C@H](C2CCCCC2)N(C)C(=O)C2(CCCC2)NC(=O)[C@H](CCC2CN(C(=O)OC(C)(C)C)C2)N(C)C(=O)[C@H](CCc2ccc(C(F)(F)F)c(Cl)c2)NC(=O)CN(C)C(=O)[C@H](CC2CCCCC2)N(C)C(=O)CN(C)C(=O)CN(C)C1=O [Compound 2056] ([NMeL]I[Sar][Sar][NMeCha][Sar][hPhe(3-Cl-4-CF3)][X46][Ac5c][NMeChg][NMeD]-Piperidide; lactam N-11)
OUTPUT: 13 nM

INPUT: Moving on to CC[C@H](C)[C@@H]1NC(=O)[C@H](CC(C)C)N(C)C(=O)C[C@@H](C(=O)N2CCCCC2)N(C)C(=O)[C@H](C2CCCCC2)N(C)C(=O)C2(CCCC2)NC(=O)[C@@H]2C[C@H](c3ccccc3)CN2C(=O)[C@H](CCc2ccc(C(F)(F)F)c(Cl)c2)NC(=O)CN(C)C(=O)[C@H](CC2CCCCC2)N(C)C(=O)[C@@H]2CCN2C(=O)CN(C)C1=O [Compound 960] ([NMeL]I[Sar][Aze][NMeCha][Sar][hPhe(3-Cl-4-CF3)][Pro(cis-4-Ph)][Ac5c][NMeChg][NMeD]-Piperidide; lactam N-11)
OUTPUT: 7.9 nM

INPUT: Moving on to CC[C@H](C)[C@@H]1NC(=O)[C@H](CC(C)C)N(C)C(=O)C[C@@H](C(=O)N2CCC2)N(C)C(=O)[C@H](C2CCCC2)N(C)C(=O)C2(CCCC2)NC(=O)[C@@H]2CCCN2C(=O)[C@H](CCc2cc(F)c(C(F)(F)F)c(F)c2)NC(=O)CN(C)C(=O)[C@H](CC2CCCCC2)N(C)C(=O)[C@@H]2CCN2C(=O)[C@H](C)N(C)C1=O [Compound 1070] ([NMeL]I[NMeA][Aze][NMeCha][Sar][hPhe(3,5-F2-4-CF3)]P[Ac5c][NMeGly(cPent)][NMeD]-{Azetidin(1-yl)}; lactam N-11)
OUTPUT: 0.91 nM

INPUT: Moving on to CC[C@H](C)[C@@H]1NC(=O)[C@H](CO)N(C)C(=O)C[C@@H](C(=O)N2CCCCC2)N(C)C(=O)[C@H](C(C)C)N(C)C(=O)C2(CCCC2)NC(=O)[C@@H]2CCCN2C(=O)[C@H](CCc2ccc(C(F)(F)F)c(Cl)c2)NC(=O)CN(C)C(=O)[C@H](CC2CCCCC2)N(C)C(=O)[C@@H]2CCN2C(=O)[C@H](C)N(C)C1=O [Compound 1837] ([NMeS]I[NMeA][Aze][NMeCha][Sar][hPhe(3-Cl-4-CF3)]P[Ac5c][NMeV][NMeD]-Piperidide; lactam N-11)
OUTPUT: 2 nM

INPUT: Moving on to CC[C@H](C)[C@@H]1NC(=O)[C@H](CC(C)C)N(C)C(=O)C[C@@H](C)N(C)C(=O)[C@H](CC(C)C)NC(=O)C(C)(C)N(C)C(=O)[C@H](CC(C)C)NC(=O)[C@H](CCc2ccc(C(F)(F)F)c(F)c2)NC(=O)CN(C)C(=O)[C@H](Cc2ccc(Cl)cc2)N(C)C(=O)CN(C)C(=O)CN(C)C1=O [Compound 797] (cyclo(I[Sar][Sar][NMePhe(4-Cl)][Sar][hPhe(3-F,4-CF3)]L[NMeAib]L[NMedβ3hAla][NMeL]))
OUTPUT: 19 nM

INPUT: Moving on to CC[C@H](C)[C@@H]1NC(=O)[C@H](CC(C)C)N(C)C(=O)C[C@@H](C(=O)N2CCCCC2)N(C)C(=O)[C@H](C2CCCCC2)N(C)C(=O)C2(CCCC2)NC(=O)[C@@H]2CSCN2C(=O)[C@H](CCc2ccc(C(F)(F)F)c(Cl)c2)NC(=O)CN(C)C(=O)[C@H](CC2CCCCC2)N(C)C(=O)CN(C)C(=O)CN(C)C1=O [Compound 1093] ([NMeL]I[Sar][Sar][NMeCha][Sar][hPhe(3-Cl-4-CF3)][Thz][Ac5c][NMeChg][NMeD]-Piperidide; lactam N-11)
OUTPUT: 0.73 nM

INPUT: Moving on to C#CC[C@@H]1CC(=O)N(C)[C@@H](CC(C)C)C(=O)N[C@@H]([C@@H](C)CC)C(=O)N(C)[C@@H](C)C(=O)N2CC[C@H]2C(=O)N(C)[C@@H](Cc2ccc(C)cc2)C(=O)N(C)CC(=O)N[C@@H](CCc2ccc(C(F)(F)F)c(Cl)c2)C(=O)N2CCC[C@H]2C(=O)NC2(CCCC2)C(=O)N(C)[C@@H]([C@@H](C)CC)C(=O)N1 [Compound 1967] (cyclo([Ac5c][NMeI][X4][NMeL]I[NMeA][Aze][NMePhe(4-Me)][Sar][hPhe(3-Cl-4-CF3)]P))
OUTPUT: 77 nM

Taken from patent US20240148821A1.
